Method Notes: Cytotoxicity against human astrocytes assessed as reduction in cell viability incubated for 72 hrs by MTT assay
Assay type: cell-based, Astrocyte
Kindly state GI50 at 72 h for each of the entries shown.

Chem Smiles: CCOc1ccc(-c2c[nH]nc2-c2cc(OC)c(OC)c(OC)c2)cc1
GI50 at 72 h: > 10 µM

// switching to the query compound
Request the reported GI50 at 72 h associated with CCOc1ccc(-c2n[nH]cc2-c2cc(OC)c(OC)c(OC)c2)cc1
> 10 µM

* * *

Measured On: Tubulin (Bos taurus) (UniProt Q6B856+Q862L2+Q862F3)
Method Notes: Displacement of [3H]-colchicine from bovine brain tubulin at 5 uM incubated for 1 hr by relative to control
Kindly state inhibition for each of the entries shown.
One number for each entry, in %.

Chem Smiles: COc1ccc(-c2c[nH]nc2-c2cc(OC)c(OC)c(OC)c2)cc1Cl
inhibition [%]: 85

Please report inhibition for every entry that follows.
1. COc1ccc(-c2c[nH]nc2-c2cc(OC)c(OC)c(OC)c2)cc1F
2. CCSc1ccc(-c2c[nH]nc2-c2cc(OC)c(OC)c(OC)c2)cc1
3. COc1cc(-c2n[nH]cc2-c2ccc(C)c(F)c2)cc(OC)c1OC
4. COc1ccc(-c2n[nH]cc2-c2cc(OC)c(OC)c(OC)c2)cc1
5. CCc1ccc(-c2c[nH]nc2-c2cc(OC)c(OC)c(OC)c2)cc1

1. 93
2. 85
3. 91
4. 93
5. 85

* * *

Measured On: Tubulin (Bos taurus) (UniProt Q6B856+Q862L2+Q862F3)
Method Notes: Displacement of [3H]-colchicine from bovine brain tubulin at 5 uM incubated for 1 hr by relative to control
Kindly state inhibition for each of the entries shown.
Numbers only, in %.

Please report inhibition for every entry that follows.
1. COc1cc(-c2n[nH]cc2-c2cc3ccccc3s2)cc(OC)c1OC
2. CCOc1ccc(-c2c[nH]nc2-c2cc(OC)c(OC)c(OC)c2)cc1Cl
3. COc1cc(-c2n[nH]cc2-c2ccc(C)cc2)cc(OC)c1OC

[93, 90, 88]

Please report inhibition for every entry that follows.
1. COc1cc(-c2n[nH]cc2-c2ccc3ccccc3c2)cc(OC)c1OC
2. COc1ccc(-c2c[nH]nc2-c2cc(OC)c(OC)c(OC)c2)cc1C
3. CCOc1ccc(-c2n[nH]cc2-c2cc(OC)c(OC)c(OC)c2)cc1
4. COc1cc(-c2c[nH]nc2-c2ccc(C)cc2)cc(OC)c1OC
5. COc1ccc(-c2c[nH]nc2-c2cc(OC)c(OC)c(OC)c2)cc1
6. COc1cc(-c2n[nH]cc2-c2ccc(C)c(C)c2)cc(OC)c1OC
7. CCOc1ccc(-c2c[nH]nc2-c2cc(OC)c(OC)c(OC)c2)cc1

[91, 81, 96, 86, 86, 85, 95]

Please state recorded inhibition (tested on Tubulin (Bos taurus) (UniProt Q6B856+Q862L2+Q862F3)) of COc1cc(-c2n[nH]cc2-c2ccc(SC)cc2)cc(OC)c1OC
85

* * *

Measured On: Tubulin (Bos taurus) (UniProt Q6B856+Q862L2+Q862F3)
Method Notes: Displacement of [3H]-colchicine from bovine brain tubulin at 0.5 uM incubated for 1 hr by relative to control
Kindly state inhibition for each of the entries shown.
Give bare numbers, in %.

Check out these entries, answers already filled in.
Chem Smiles: CCOc1ccc(-c2c[nH]nc2-c2cc(OC)c(OC)c(OC)c2)cc1Cl
inhibition / %: 62
//
Chem Smiles: COc1ccc(-c2c[nH]nc2-c2cc(OC)c(OC)c(OC)c2)cc1F
inhibition / %: 55
//
Chem Smiles: COc1cc(-c2n[nH]cc2-c2ccc3ccccc3c2)cc(OC)c1OC
inhibition / %: 68
//
Chem Smiles: CCOc1ccc(-c2c[nH]nc2-c2cc(OC)c(OC)c(OC)c2)cc1
inhibition / %: 69
//
Chem Smiles: COc1cc(-c2n[nH]cc2-c2ccc(C)c(F)c2)cc(OC)c1OC
inhibition / %: 49
//
Chem Smiles: COc1cc(-c2n[nH]cc2-c2cc3ccccc3s2)cc(OC)c1OC
inhibition / %: 69
//
Chem Smiles: CCOc1ccc(-c2n[nH]cc2-c2cc(OC)c(OC)c(OC)c2)cc1
inhibition / %: 90

Request the reported inhibition associated with COc1ccc(-c2n[nH]cc2-c2cc(OC)c(OC)c(OC)c2)cc1
79

* * *

Kindly state pIC50 for each of the entries shown.
Tested on: HL-60
Method Notes: Antiproliferative activity against human HL60 cells assessed as inhibition of cell proliferation incubated for 72 hrs by MTT assay
Format: functional, cell-based
Assay Setup: HL-60, 72 h
Give bare numbers, as −log10 of the molar value.

Chem Smiles: COc1cc(-c2n[nH]cc2-c2ccc(C)c(C)c2)cc(OC)c1OC
pIC50: 7.29
//
Chem Smiles: COc1cc(-c2n[nH]cc2-c2ccc(C)c(F)c2)cc(OC)c1OC
pIC50: 7.51
//
Chem Smiles: COc1ccc(-c2c[nH]nc2-c2cc(OC)c(OC)c(OC)c2)cc1Cl
pIC50: 7.77
//
Chem Smiles: CCCc1ccc(-c2c[nH]nc2-c2cc(OC)c(OC)c(OC)c2)cc1
pIC50: 6.26
//
Chem Smiles: COc1cc(-c2n[nH]cc2-c2ccc3ccccc3c2)cc(OC)c1OC
pIC50: 8.03
//
Chem Smiles: COc1ccc(-c2n[nH]cc2-c2cc(OC)c(OC)c(OC)c2)cc1
pIC50: 8.68
//
Chem Smiles: COc1cc(-c2c[nH]nc2-c2ccc(C)cc2)cc(OC)c1OC
pIC50: 7.50
//
Chem Smiles: COc1ccc(-c2c[nH]nc2-c2cc(OC)c(OC)c(OC)c2)cc1
pIC50: 8.36

Please report pIC50 for every entry that follows.
1. COc1ccc(-c2c[nH]nc2-c2cc(OC)c(OC)c(OC)c2)cc1C
2. CCOc1ccc(-c2c[nH]nc2-c2cc(OC)c(OC)c(OC)c2)cc1Cl
3. COc1ccc(-c2c[nH]nc2-c2cc(OC)c(OC)c(OC)c2)cc1F
4. COc1cc(-c2c[nH]nc2-c2cc(OC)c(OC)c(OC)c2)ccc1C

1. 7.75
2. 8.82
3. 8.29
4. 6.80

Please report pIC50 for every entry that follows.
1. COc1cc(-c2n[nH]cc2-c2cc3ccccc3s2)cc(OC)c1OC
2. CCOc1ccc(-c2c[nH]nc2-c2cc(OC)c(OC)c(OC)c2)cc1
3. COc1cc(-c2n[nH]cc2-c2ccc(SC)cc2)cc(OC)c1OC
4. CCOc1ccc(-c2n[nH]cc2-c2cc(OC)c(OC)c(OC)c2)cc1
5. CCSc1ccc(-c2c[nH]nc2-c2cc(OC)c(OC)c(OC)c2)cc1
6. COc1cc(-c2n[nH]cc2-c2ccc(C)cc2)cc(OC)c1OC
7. CCc1ccc(-c2c[nH]nc2-c2cc(OC)c(OC)c(OC)c2)cc1

[8.64, 8.49, 7.39, 9.60, 7.53, 7.92, 7.63]

Please report pIC50 for every entry that follows.
1. COc1cc(-c2n[nH]cc2-c2ccc(OC(F)(F)F)cc2)cc(OC)c1OC
2. COc1cc(-c2n[nH]cc2-c2ccc(C(F)(F)F)cc2)cc(OC)c1OC

[5.76, 6.75]

* * *

Measured On: Tubulin (Bos taurus, UniProt Q6B856+Q862L2+Q862F3)
Method Notes: Inhibition of bovine brain tubulin assembly using GTP as substrate incubated for 20 mins by spectrophotometric method
Quantity Kind: IC50 (µM)
One number for each entry, in µM.

Chem Smiles: COc1cc(-c2n[nH]cc2-c2ccc(C)c(F)c2)cc(OC)c1OC
IC50 / µM: 0.48

Please report IC50 for every entry that follows.
1. COc1cc(-c2n[nH]cc2-c2cc3ccccc3s2)cc(OC)c1OC
2. COc1cc(-c2n[nH]cc2-c2ccc(C)cc2)cc(OC)c1OC
3. CCOc1ccc(-c2n[nH]cc2-c2cc(OC)c(OC)c(OC)c2)cc1
4. COc1ccc(-c2n[nH]cc2-c2cc(OC)c(OC)c(OC)c2)cc1
5. CCOc1ccc(-c2c[nH]nc2-c2cc(OC)c(OC)c(OC)c2)cc1
6. COc1cc(-c2c[nH]nc2-c2ccc(C)cc2)cc(OC)c1OC
7. COc1cc(-c2n[nH]cc2-c2ccc3ccccc3c2)cc(OC)c1OC

[0.3, 0.37, 0.35, 0.34, 0.36, 0.57, 0.41]

Please report IC50 for every entry that follows.
1. CCc1ccc(-c2c[nH]nc2-c2cc(OC)c(OC)c(OC)c2)cc1
2. COc1cc(-c2n[nH]cc2-c2ccc(SC)cc2)cc(OC)c1OC
3. COc1ccc(-c2c[nH]nc2-c2cc(OC)c(OC)c(OC)c2)cc1Cl

1. 0.52
2. 0.57
3. 0.52

* * *

Measured On: Tubulin (Bos taurus, UniProt Q6B856+Q862L2+Q862F3)
Method Notes: Inhibition of bovine brain tubulin assembly using GTP as substrate incubated for 20 mins by spectrophotometric method
Kindly state IC50 for each of the entries shown.
The reply should read as a number followed by its unit.

Check out these entries, answers already filled in.
Chem Smiles: COc1cc(-c2n[nH]cc2-c2ccc(C)c(C)c2)cc(OC)c1OC
Measured On: Tubulin (Bos taurus, UniProt Q6B856+Q862L2+Q862F3)
IC50: 610 nM

Chem Smiles: CCSc1ccc(-c2c[nH]nc2-c2cc(OC)c(OC)c(OC)c2)cc1
Measured On: Tubulin (Bos taurus, UniProt Q6B856+Q862L2+Q862F3)
IC50: 480 nM

Chem Smiles: COc1ccc(-c2c[nH]nc2-c2cc(OC)c(OC)c(OC)c2)cc1
Measured On: Tubulin (Bos taurus, UniProt Q6B856+Q862L2+Q862F3)
IC50: 370 nM

Chem Smiles: CCOc1ccc(-c2c[nH]nc2-c2cc(OC)c(OC)c(OC)c2)cc1Cl
Measured On: Tubulin (Bos taurus, UniProt Q6B856+Q862L2+Q862F3)
IC50: 390 nM

Please report IC50 for every entry that follows.
1. COc1ccc(-c2c[nH]nc2-c2cc(OC)c(OC)c(OC)c2)cc1C
2. COc1ccc(-c2c[nH]nc2-c2cc(OC)c(OC)c(OC)c2)cc1F

1. 440 nM
2. 420 nM
